test system: HCV replicon type 1b in Huh-Luc cells; assay: HCV replicon assay, stable transfection (Huh-7 luc/neo, luciferase readout); type: cell-based, HCV type 1b; details: Hepatitis C virus, Huh-7, 72 h, stably transfected Huh-Luc cells, genotype 1b, three days incubation, average if tested more than once, read-out: HCV-REP-HUH7LUC_EC50
VALUE_KIND: pEC50
pEC50 is defined as minus the log10 of a concentration measured in mol/L.

Reference set, count: 4
• COC(=O)N[C@H](C(=O)N1[C@H](c2ncc(-c3ccc4cc(-c5ccc6c(=O)[nH]c([C@@H]7C[C@@H]8CCCC[C@@H]8N7C(=O)[C@@H](NC(=O)OC)C(C)C)nc6c5)ccc4c3)[nH]2)C[C@@H]2CCCC[C@@H]21)C(C)C [Compound 14] = 10.66
• COC(=O)N[C@H](C(=O)N1CCC[C@H]1c1nc2cc(-c3ccc4cc(-c5cnc([C@@H]6C[C@H]7C[C@H]7N6C(=O)[C@@H](NC(=O)OC)C(C)C)[nH]5)ccc4c3)ccc2c(=O)[nH]1)C(C)C [Compound 10] = 11.22
• COC(=O)N[C@H](C(=O)N1[C@@H]2C[C@@H]2C[C@H]1c1ncc(-c2ccc3cc(-c4ccc5c(=O)[nH]c([C@@H]6C[C@@H]7CCCC[C@@H]7N6C(=O)[C@@H](NC(=O)OC)C(C)C)nc5c4)ccc3c2)[nH]1)C(C)C [Compound 7] = 11.10
• COC(=O)N[C@H](C(=O)N1CCC[C@H]1c1ncc(-c2ccc3cc(-c4ccc5c(=O)[nH]c([C@@H]6C[C@@H]7CCCC[C@@H]7N6C(=O)[C@@H](NC(=O)OC)C(C)C)nc5c4)ccc3c2)[nH]1)C(C)C [Compound 15] = 11.22

// assay HCV replicon type 1b in Huh-Luc cells, entry COC(=O)N[C@H](C(=O)N1CC2(C[C@H]1c1ncc(-c3ccc4cc(-c5ccc6c(=O)[nH]c([C@@H]7C[C@@H]8CCCC[C@@H]8N7C(=O)[C@@H](NC(=O)OC)C(C)C)nc6c5)ccc4c3)[nH]1)OCCO2)C(C)C [Compound 9] , pEC50 value = 11.10

// assay HCV replicon type 1b in Huh-Luc cells, entry COC(=O)N[C@H](C(=O)N1CC2(C[C@H]1c1ncc(-c3ccc4cc(-c5ccc6c(=O)[nH]c([C@@H]7CCCN7C(=O)[C@@H](NC(=O)OC)C(C)C)nc6c5)ccc4c3)[nH]1)OCCO2)C(C)C [Compound 5] , pEC50 value = 10.60

// assay HCV replicon type 1b in Huh-Luc cells, entry COC(=O)N[C@H](C(=O)N1[C@@H]2CC[C@@H](C2)[C@H]1c1nc2cc(-c3ccc4cc(-c5cnc([C@@H]6C[C@H]7C[C@H]7N6C(=O)[C@@H](NC(=O)OC)C(C)C)[nH]5)ccc4c3)ccc2c(=O)[nH]1)C(C)C [Compound 12] , pEC50 value = 9.57

// assay HCV replicon type 1b in Huh-Luc cells, entry COC(=O)N[C@H](C(=O)N1CC2(CC2)C[C@H]1c1ncc(-c2ccc3cc(-c4ccc5c(=O)[nH]c([C@@H]6C[C@@H]7CCCC[C@@H]7N6C(=O)[C@@H](NC(=O)OC)C(C)C)nc5c4)ccc3c2)[nH]1)C(C)C [Compound 13] , pEC50 value = 11.22

* * *

Entries and their pEC50 values follow.
tested on: HCV replicon type 1b in Huh-Luc cells; assay: HCV replicon assay, stable transfection (Huh-7 luc/neo, luciferase readout); format: cell-based, HCV type 1b; settings: Hepatitis C virus, Huh-7, 72 h, stably transfected Huh-Luc cells, genotype 1b, three days incubation, average if tested more than once, read-out: HCV-REP-HUH7LUC_EC50
pEC50 is defined as minus the log10 of a concentration measured in mol/L.

Reference set, count: 2
* COC(=O)N[C@H](C(=O)N1CC2(C[C@H]1c1ncc(-c3ccc4cc(-c5ccc6c(=O)[nH]c([C@@H]7CC8(CN7C(=O)[C@@H](NC(=O)OC)C(C)C)OCCO8)nc6c5)ccc4c3)[nH]1)OCCO2)C(C)C | 10.74
* COC(=O)N[C@H](C(=O)N1CC2(C[C@H]1c1ncc(-c3ccc4cc(-c5ccc6c(=O)[nH]c([C@@H]7C[C@H]8C[C@H]8N7C(=O)[C@@H](NC(=O)OC)C(C)C)nc6c5)ccc4c3)[nH]1)OCCO2)C(C)C | 11.10

Given item "COC(=O)N[C@H](C(=O)N1CC2(C[C@H]1c1nc3cc(-c4ccc5cc(-c6cnc([C@@H]7C[C@H]8C[C@H]8N7C(=O)[C@@H](NC(=O)OC)C(C)C)[nH]6)ccc5c4)ccc3c(=O)[nH]1)OCCCO2)C(C)C" , the value recorded as its pEC50 is 10.59

Given item "COC(=O)N[C@H](C(=O)N1[C@@H]2C[C@@H]2C[C@H]1c1ncc(-c2ccc3cc(-c4ccc5c(=O)[nH]c([C@@H]6C[C@H]7C[C@H]7N6C(=O)[C@@H](NC(=O)OC)C(C)C)nc5c4)ccc3c2)[nH]1)C(C)C" , the value recorded as its pEC50 is 10.77
